molecular target: Serine/threonine-protein kinase pim-1 (Homo sapiens, UniProt P11309)
Sequence (P11309 whole entry): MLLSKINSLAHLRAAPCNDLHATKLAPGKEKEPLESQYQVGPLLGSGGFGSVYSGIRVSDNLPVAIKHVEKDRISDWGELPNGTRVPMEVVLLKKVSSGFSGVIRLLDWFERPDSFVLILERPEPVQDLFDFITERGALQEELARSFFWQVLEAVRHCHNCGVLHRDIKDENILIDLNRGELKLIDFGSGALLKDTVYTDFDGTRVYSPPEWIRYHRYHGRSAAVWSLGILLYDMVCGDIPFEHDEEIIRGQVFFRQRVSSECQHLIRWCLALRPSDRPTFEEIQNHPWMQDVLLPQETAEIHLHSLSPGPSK
observation-type: IC50 (nM)
Reply with just the number (in nM).

Can you share its IC50? I mean this compound: CN1CCOc2c1c(N1CCCC3(CCNCC3)C1)nn1c(-c3ccnc(C(F)(F)F)c3)cnc21 [US20240199630, Compound T4.7]
1.1
